# ASSAY_SUMMARY: Acute toxicity in mice
# Type: in vivo
# CONDITION_NOTES: mouse, in vivo, iv
OBSERVED_PROPERTY: LD50 (mg/kg)
Note: unit mg/kg is implicit; provide only the numeric part.

Input CN[C@@H]1[C@H](O[C@@H]2OC[C@@H](O)[C@H](O)[C@H]2O)[C@@H](O)[C@H](OC2c3cc(C)c(C(=O)N[C@H](C)C(=O)O)c(O)c3-c3c(cc4c(c3O)C(=O)c3cc(OC)cc(O)c3C4=O)C2O)O[C@@H]1C (stereo partly shown) , output reported LD50.
140
